Value source: the supplement of paper PMC4862054

System: MDA-MB-436
Assay: normalised response (% of control), CellTox Green; higher = less cell death (100 = DMSO, 0 = benzethonium chloride kill control)
Details: incubation time: 72 h
Could you please report measured normalised response for the items listed next?
Answers are plain numbers, in %.

# count of solved cases: 3
Compound: C/C(=C\c1csc(C)n1)[C@@H]1C[C@@H]2O[C@]2(C)CCC[C@H](C)[C@H](O)[C@@H](C)C(=O)C(C)(C)[C@@H](O)CC(=O)N1 [Ixabepilone] (100 nM)
normalised response / %: 106
//
Compound: O=C(O)CNC(=O)c1c(O)c2ccccc2n(Cc2ccccc2)c1=O [IOX-2] (50000 nM)
normalised response / %: 67
//
Compound: CC(C)C[C@H](NC(=O)[C@@H](COC(C)(C)C)NC(=O)[C@H](Cc1ccc(O)cc1)NC(=O)[C@H](CO)NC(=O)[C@H](Cc1c[nH]c2ccccc12)NC(=O)[C@H](Cc1cnc[nH]1)NC(=O)[C@@H]1CCC(=O)N1)C(=O)N[C@@H](CCCNC(=N)N)C(=O)N1CCC[C@H]1C(=O)NNC(N)=O [Goserelin] (1000 nM)
normalised response / %: 92.4

Parameter requested: normalised response. Apply to each item below.
1. CC(=O)[C@]1(O)Cc2c(O)c3c(c(O)c2[C@@H](O[C@H]2C[C@H](N)[C@H](O)[C@H](C)O2)C1)C(=O)c1ccccc1C3=O [Idarubicin] (10 nM)
2. CCNC(=O)c1noc(-c2cc(C(C)C)c(O)cc2O)c1-c1ccc(CN2CCOCC2)cc1 [NVP-AUY922] (10 nM)
3. CC(C)(C)c1nc(-c2cccc(NS(=O)(=O)c3c(F)cccc3F)c2F)c(-c2ccnc(N)n2)s1 [Dabrafenib] (2500 nM)
4. C/C(=C\c1csc(C)n1)[C@@H]1C[C@@H]2O[C@]2(C)CCC[C@H](C)[C@H](O)[C@@H](C)C(=O)C(C)(C)[C@@H](O)CC(=O)N1 [Ixabepilone] (1000 nM)
5. O=C(CCCCCCC(=O)Nc1ccccc1)NO [Vorinostat] (100 nM)

1: 96; 2: 70.9; 3: 107; 4: 103; 5: 74.1
